These entries and their values trace back to patent US10751353B2.

- ASSAY TEXT: Preclinical PK study: plasma and muscle concentrations of trehalose after IV bolus and oral gavage
- Format: in vivo, male Sprague-Dawley (SD) rats
- DETAILS: male, Sprague-Dawley, rat, in vivo, po, 1000 mg/kg, MRT0-last

- SAMPLE SMILES: "OC[C@H]1O[C@H](O[C@H]2O[C@H](CO)[C@@H](O)[C@H](O)[C@H]2O)[C@H](O)[C@@H](O)[C@@H]1O"
  MRT last (h): 1.04

----------
- ASSAY TEXT: Preclinical PK study: plasma and muscle concentrations of trehalose after IV bolus and oral gavage
- Assay type: in vivo, male Sprague-Dawley (SD) rats
- DETAILS: male, Sprague-Dawley, rat, in vivo, iv, 1000 mg/kg, AUC ratio = Muscle AUC0-inf/Plasma AUC0-inf
- Method: The plasma and muscle concentrations of trehalose in male Sprague-Dawley (SD) rats was determined after intravenous bolus (IV) and oral gavage (PO) administration. […] Blood samples were collected after each dose administration and processed for plasma. […] The concentrations of trehalose in plasma and muscle homogenate samples were analyzed by qualified bioanalytical LC/MS/MS methods. […] The values of muscle to plasma concentration and AUC ratio (M/P ratio) were both calculated.
REPORTED ENDPOINT: Kp

- SAMPLE SMILES: "OC[C@H]1O[C@H](O[C@H]2O[C@H](CO)[C@@H](O)[C@H](O)[C@H]2O)[C@H](O)[C@@H](O)[C@@H]1O"
  REPORTED ENDPOINT: "Kp"
  ENDPOINT RESULT: 0.234

----------
- ASSAY TEXT: Preclinical PK study: plasma and muscle concentrations of trehalose after IV bolus and oral gavage
- Type: in vivo, male Sprague-Dawley (SD) rats
- DETAILS: male, Sprague-Dawley, rat, in vivo, po, 1000 mg/kg, AUC0-last

- SAMPLE SMILES: "OC[C@H]1O[C@H](O[C@H]2O[C@H](CO)[C@@H](O)[C@H](O)[C@H]2O)[C@H](O)[C@@H](O)[C@@H]1O"
  UNIT: "ng·h/mL"
  AUC(0-t): 4520

----------
- ASSAY TEXT: Preclinical PK study: plasma and muscle concentrations of trehalose after IV bolus and oral gavage
- Assay type: in vivo, male Sprague-Dawley (SD) rats
- DETAILS: male, Sprague-Dawley, rat, in vivo, 1000 mg/kg
- Procedure: The plasma and muscle concentrations of trehalose in male Sprague-Dawley (SD) rats was determined after intravenous bolus (IV) and oral gavage (PO) administration. […] Blood samples were collected after each dose administration and processed for plasma. […] The concentrations of trehalose in plasma and muscle homogenate samples were analyzed by qualified bioanalytical LC/MS/MS methods. […] The values of muscle to plasma concentration and AUC ratio (M/P ratio) were both calculated.

- MOLECULE: "OC[C@H]1O[C@H](O[C@H]2O[C@H](CO)[C@@H](O)[C@H](O)[C@H]2O)[C@H](O)[C@@H](O)[C@@H]1O [trehalose]"
  bioavailability: "0.601%"

----------
- ASSAY TEXT: Preclinical PK study: plasma and muscle concentrations of trehalose after IV bolus and oral gavage
- Type: in vivo, male Sprague-Dawley (SD) rats
- DETAILS: male, Sprague-Dawley, rat, in vivo, po, 1000 mg/kg

- SAMPLE SMILES: "OC[C@H]1O[C@H](O[C@H]2O[C@H](CO)[C@@H](O)[C@H](O)[C@H]2O)[C@H](O)[C@@H](O)[C@@H]1O"
  AUC(0-inf): "4870 ng·h/mL"
